experiment: Stability in human serum assessed as intact peptide level at 37 degC incubated for 72 hrs by RP-HPLC analysis; format: ADME, cell-free; conditions: read-out: Drug uptake

| molecule | remaining at 72 h |
| --- | --- |
| CC(=O)NC(CCCCNC(=O)c1cccc([125I])c1)C(=O)NCCCCCC(=O)N[C@H](C(=O)N[C@@H](CO)C(=O)N[C@@H](Cc1ccccc1)C(=O)N[C@@]1(C)CCCCCC/C=C/CCC[C@@](C)(C(=O)N[C@@H](CCC(=O)O)C(=O)N[C@@H](CC(N)=O)C(=O)N[C@@H](Cc2ccccc2)C(N)=O)NC(=O)[C@H](CC(C)C)NC(=O)[C@H](CC(C)C)NC(=O)[C@H](C)NC(=O)[C@H](Cc2c[nH]c3ccccc23)NC(=O)[C@H](Cc2ccc(O)cc2)NC(=O)[C@H](CCC(=O)O)NC1=O)[C@@H](C)O (stereo partly specified) | 96% |

====

assay: Stability in human serum assessed as intact peptide level at 37 degC incubated for 1 hr by RP-HPLC analysis; assay type: ADME, cell-free; details: read-out: Drug uptake

| molecule | remaining at 1 h |
| --- | --- |
| CC(=O)NC(CCCCNC(=O)c1cccc([125I])c1)C(=O)NCCCCCC(=O)N[C@H](C(=O)N[C@@H](CO)C(=O)N[C@@H](Cc1ccccc1)C(=O)N[C@@]1(C)CCCCCC/C=C/CCC[C@@](C)(C(=O)N[C@@H](CCC(=O)O)C(=O)N[C@@H](CC(N)=O)C(=O)N[C@@H](Cc2ccccc2)C(N)=O)NC(=O)[C@H](CC(C)C)NC(=O)[C@H](CC(C)C)NC(=O)[C@H](C)NC(=O)[C@H](Cc2c[nH]c3ccccc23)NC(=O)[C@H](Cc2ccc(O)cc2)NC(=O)[C@H](CCC(=O)O)NC1=O)[C@@H](C)O (stereo partly specified) | 98.2% |

====

assay: Drug uptake in MDM2-amplified human SJSA-1 cells expressing wild type p53 at 5 to 50 uM incubated for 30 mins; format: ADME, cell-based; settings: sjsa-1, 0.5 h, dose 5-50 µM
endpoint.label: Drug uptake (%/mg protein)

| compound | endpoint.label | measured.value |
| --- | --- | --- |
| CC(=O)NC(CCCCNC(=O)c1cccc([125I])c1)C(=O)NCCCCCC(=O)N[C@H](C(=O)N[C@@H](CO)C(=O)N[C@@H](Cc1ccccc1)C(=O)N[C@@]1(C)CCCCCC/C=C/CCC[C@@](C)(C(=O)N[C@@H](CCC(=O)O)C(=O)N[C@@H](CC(N)=O)C(=O)N[C@@H](Cc2ccccc2)C(N)=O)NC(=O)[C@H](CC(C)C)NC(=O)[C@H](CC(C)C)NC(=O)[C@H](C)NC(=O)[C@H](Cc2c[nH]c3ccccc23)NC(=O)[C@H](Cc2ccc(O)cc2)NC(=O)[C@H](CCC(=O)O)NC1=O)[C@@H](C)O (stereo partly specified) | Drug uptake | 104 |

====

assay: Lipophilicity, logD of the compound using n-octanol and phosphate-buffered saline at pH 7.4 by the shake flask method; assay type: physicochemical
Listed here are compounds together with their documented logD.

| compound | logD |
| --- | --- |
| CC(=O)NC(CCCCNC(=O)c1cccc([125I])c1)C(=O)NCCCCCC(=O)N[C@H](C(=O)N[C@@H](CO)C(=O)N[C@@H](Cc1ccccc1)C(=O)N[C@@]1(C)CCCCCC/C=C/CCC[C@@](C)(C(=O)N[C@@H](CCC(=O)O)C(=O)N[C@@H](CC(N)=O)C(=O)N[C@@H](Cc2ccccc2)C(N)=O)NC(=O)[C@H](CC(C)C)NC(=O)[C@H](CC(C)C)NC(=O)[C@H](C)NC(=O)[C@H](Cc2c[nH]c3ccccc23)NC(=O)[C@H](Cc2ccc(O)cc2)NC(=O)[C@H](CCC(=O)O)NC1=O)[C@@H](C)O (some centres not stated) | 1.45 |
| CC(=O)NC(CCCCNC(=O)c1cccc(I)c1)C(=O)NCCCCCC(=O)N[C@H](C(=O)N[C@@H](CO)C(=O)N[C@@H](Cc1ccccc1)C(=O)N[C@@]1(C)CCCCCC/C=C/CCC[C@@](C)(C(=O)N[C@@H](CCC(=O)O)C(=O)N[C@@H](CC(N)=O)C(=O)N[C@@H](Cc2ccccc2)C(N)=O)NC(=O)[C@H](CC(C)C)NC(=O)[C@H](CC(C)C)NC(=O)[C@H](C)NC(=O)[C@H](Cc2c[nH]c3ccccc23)NC(=O)[C@H](Cc2ccc(O)cc2)NC(=O)[C@H](CCC(=O)O)NC1=O)[C@@H](C)O (some centres not stated) | 1.45 |

====

experiment: Drug uptake in MDM2-amplified human SJSA-1 cells expressing wild type p53 at 5 to 50 uM incubated for 60 mins; format: ADME, cell-based; details: sjsa-1, 1 h, dose 5-50 µM
endpoint.label: Drug uptake (%/mg protein)

| molecule | reading.unit | measured.value |
| --- | --- | --- |
| CC(=O)NC(CCCCNC(=O)c1cccc([125I])c1)C(=O)NCCCCCC(=O)N[C@H](C(=O)N[C@@H](CO)C(=O)N[C@@H](Cc1ccccc1)C(=O)N[C@@]1(C)CCCCCC/C=C/CCC[C@@](C)(C(=O)N[C@@H](CCC(=O)O)C(=O)N[C@@H](CC(N)=O)C(=O)N[C@@H](Cc2ccccc2)C(N)=O)NC(=O)[C@H](CC(C)C)NC(=O)[C@H](CC(C)C)NC(=O)[C@H](C)NC(=O)[C@H](Cc2c[nH]c3ccccc23)NC(=O)[C@H](Cc2ccc(O)cc2)NC(=O)[C@H](CCC(=O)O)NC1=O)[C@@H](C)O (stereo partly specified) | %/mg protein | 142 |
